Recorded values, source patent US4277497A.

LD50 values, listed per item
assay: Oral toxicity in mice (Miller and Tainter's method); assay type: in vivo; conditions: mouse, in vivo, po, read-out: LD50 toxicity orally

Known LD50 results, listed for orientation:
Cc1c(OC(C)C(=O)O)cccc1C(=O)c1ccc(Cl)cc1 (stereo not shown): 750 mg/kg
Cc1c(OC(C)C(=O)O)cccc1C(=O)c1ccc(Cl)cc1Cl (stereo not shown): 750 mg/kg
CC(Oc1cccc(C(=O)c2ccc(Cl)cc2Cl)c1)C(=O)O (stereo not shown): 1500 mg/kg
Cc1ccc(C(=O)c2cccc(OC(C)C(=O)O)c2)c(C)c1 (stereo not shown): 2000 mg/kg
CCOC(=O)C(C)Oc1cccc(C(=O)c2ccc(Cl)cc2)c1C (stereo not shown): 1500 mg/kg
CC(Oc1cccc(C(=O)c2ccccc2)c1)C(=O)O (stereo not shown): 1000 mg/kg

Please look at the following molecule next.
Input line: Fill blank: measured LD50 of the molecule Cc1ccc(C(=O)c2cccc(OC(C)C(=O)O)c2)cc1 (stereo not shown) is ____.
Output line: 1500 mg/kg

====

LD50 values, listed per item
assay: Oral toxicity in mice (Miller and Tainter's method); format: in vivo; conditions: mouse, in vivo, po, read-out: LD50 toxicity orally
Use mg/kg as the unit, but write only the number.

Known LD50 results, listed for orientation:
CC(Oc1cccc(C(=O)c2ccc(F)cc2)c1)C(=O)O (centres unmarked): 1500
Cc1ccc(C(=O)c2ccc(Cl)cc2)cc1OC(C)C(=O)O (centres unmarked): 500
Cc1c(OC(C)C(=O)O)cccc1C(=O)c1ccccc1 (centres unmarked): 750

Input line: Fill blank: measured LD50 of the molecule CC(Oc1cccc(C(=O)c2ccc(Br)cc2)c1)C(=O)O (centres unmarked) is ____.
Output line: 1000

Input line: Fill blank: measured LD50 of the molecule Cc1ccc(C(=O)c2cccc(OC(C)C(=O)O)c2C)cc1 (centres unmarked) is ____.
Output line: 600

====

test system: carrageenin oedema; test: Carrageenin oedema test (Winter and Risley's technique), anti-inflammatory activity; format: in vivo, rats (Wistar strain, female); settings: rats, inhibition of oedema compared with control batch
Counter-ions that a name gives are not always drawn.
Anti-inflammatory activity at 1/10 of LD50 values, listed per item
Use % as the unit, but write only the number.

Known Anti-inflammatory activity at 1/10 of LD50 results, listed for orientation:
CC(Oc1cccc(C(=O)c2ccccc2)c1)C(=O)O (centres unmarked) [Example 1]: 17
Cc1c(OC(C)C(=O)O)cccc1C(=O)c1ccc(Cl)cc1 (centres unmarked) [Lysine salt of Ex. 6]: 57

Input line: Fill blank: measured Anti-inflammatory activity at 1/10 of LD50 of the compound CC(Oc1cccc(C(=O)c2ccccc2)c1)C(=O)O (centres unmarked) [Lysine salt of Ex. 1] is ____.
Output line: 50

Input line: Fill blank: measured Anti-inflammatory activity at 1/10 of LD50 of the compound Cc1ccc(C(=O)c2cccc(OC(C)C(=O)O)c2)c(C)c1 (centres unmarked) is ____.
Output line: 41

Input line: Fill blank: measured Anti-inflammatory activity at 1/10 of LD50 of the compound CC(Oc1cccc(C(=O)c2ccc(Br)cc2)c1)C(=O)O (centres unmarked) is ____.
Output line: 45

Input line: Fill blank: measured Anti-inflammatory activity at 1/10 of LD50 of the compound Cc1ccc(C(=O)c2cccc(OC(C)C(=O)O)c2)cc1 (centres unmarked) [Example 8] is ____.
Output line: 40
